Tested on: MS2 coat protein
method summary: apparent KD of MS2 coat protein; designed switch direction (-1 OFF switch, 1 ON switch): -1; higher = weaker reporter binding
particulars: Eterna round: R95; input ligand: none
parameter measured: apparent KD of MS2 coat protein
Field note: include the unit after the figure.

(Q) Reported apparent KD of MS2 coat protein, sequence ACAAGCUUAUUGCUCGGGUACAUGAGGAUCACCCAUGUUUGUGAUUAUAGAGAUUGUGUUGACGUGCGCUGCAGGUU [JR_SV3TOV1_Sub078] (puzzle: Sensor v3, turn-off variant 1) : ____
(A) 77 nM

(Q) Param item = CAUCCAGCUUCCCUUCAAAACAUGAGGAUCACCCAUGUUUUUGUUUUUACAAGCUUUUUGCUUUUUGCUCGUCUUGU [A Humble Attempt... Again] (puzzle: Sensor v3, turn-off variant 1) ; retrieve measured apparent KD of MS2 coat protein.
(A) 21.5 nM

(Q) Recorded apparent KD of MS2 coat protein for UUUAAUUUUUUUUUUUUACAAGCUUUUUGCUCGUCUUAUACAUGAGGAUCACCCAUGUAGGUGGGAGAUAAAUUAUC [JMF 23] (puzzle: Sensor v3, turn-off variant 2) , please?
(A) 131 nM

(Q) Look at this sequence and give its reported apparent KD of MS2 coat protein. UUUAAUUUUUUUUUUUUACAAGCUUUUUGCUCGUCUUAUACAUGAGGAUCACCCAUGUGGGUGGGAGGUAAAUUAUC [JMF 78] (puzzle: Sensor v3, turn-off variant 2)
(A) 82.6 nM

(Q) Given the entry AGUACUAACACGAAAGUGUUGGUACAAUAAGCUUGUGAAACAUGAGGAUCACCCAUGUCCUCAUAAGCUCGUCUUAU [salish99_TOv2_r3_036] (puzzle: Sensor v3, turn-off variant 2) , report its measured apparent KD of MS2 coat protein.
(A) 16.7 nM
